- assay target: ChuaMOX (mandelonitrile oxidase) (Chamberlinius hualienensis)
- Construct: native enzyme purified from millipede bodies without guts; ORF 593 residues incl; 17-residue signal peptide; predicted mature 62,818 Da; 67 kDa SDS-PAGE, 65 kDa gel filtration; monomeric, glycosylated, FAD
- Sequence (A0A173MZJ8 entry or part of it): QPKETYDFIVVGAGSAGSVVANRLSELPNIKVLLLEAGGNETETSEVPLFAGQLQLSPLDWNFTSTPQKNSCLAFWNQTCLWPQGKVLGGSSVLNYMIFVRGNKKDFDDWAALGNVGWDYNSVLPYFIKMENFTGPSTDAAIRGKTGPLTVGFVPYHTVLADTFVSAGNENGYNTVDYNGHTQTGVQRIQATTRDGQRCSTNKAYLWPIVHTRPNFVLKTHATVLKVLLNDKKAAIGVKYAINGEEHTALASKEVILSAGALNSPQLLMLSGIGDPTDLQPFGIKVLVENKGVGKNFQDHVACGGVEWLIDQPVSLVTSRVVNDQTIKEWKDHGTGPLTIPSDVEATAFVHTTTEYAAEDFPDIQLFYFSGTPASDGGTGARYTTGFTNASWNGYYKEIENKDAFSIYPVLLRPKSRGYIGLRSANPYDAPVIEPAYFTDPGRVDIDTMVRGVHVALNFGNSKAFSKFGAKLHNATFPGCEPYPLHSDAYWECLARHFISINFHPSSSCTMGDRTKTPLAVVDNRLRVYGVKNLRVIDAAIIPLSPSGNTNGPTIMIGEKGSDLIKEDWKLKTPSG
- assay explanation: biochemical
- Set-up: Oxidase activity of purified native ChuaMOX, ABTS read-out, pH 5, compound added at 1 mM
- condition set: read-out: % of control remaining
Where a name gives a salt, the structure may show the parent alone.
parameter: remaining activity at 1000 µM (%)
Kindly provide the numeric value in % only, without the unit symbol.

Solved cases below.
1. CC(C)NNC(=O)c1ccncc1 = 80
2. C#CCN(C)Cc1ccccc1 = 100
3. O=C(O)CI = 71.4
4. NNC(N)=O [Semicarbazide hydrochloride] = 92
5. NNC(=O)c1ccncc1 = 88

Input line: Item CCN1C(=O)C=CC1=O [N-Ethylmaleimide] : provide remaining activity at 1000 µM
Output line: 96.8

Input line: Item c1ccc(-c2ccccn2)nc1 : provide remaining activity at 1000 µM
Output line: 87.3

Input line: Item c1cnc2c(c1)ccc1cccnc12 : provide remaining activity at 1000 µM
Output line: 84.1
